- System: R275C/beta4
- protocol_details: modulators of BK channel variants, profiling panel, selectivity assay, cell-based, U2OS BacMam, thallium flux, beta subunits (AID 1259406);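 note: initial slope of Thallos dye fluorescence rise after thallium is added; log ratio against the mean of 0.3% DMSO vehicle wells on the same plate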
- condition_label: at 30 µM
Category | rule: reported log fold change Tl+ flux within range, see low (below -0.008), moderate (-0.008 to below 0.02), high (0.02 or more)

Study these solved cases before continuing.
COC(=O)C[C@](O)(CCCC(C)(C)O)C(=O)O[C@@H]1C(OC)=C[C@]23CCCN2CCc2cc4c(cc2[C@H]13)OCO4 :: low
COc1ccc(Oc2ccc([N+](=O)[O-])cc2C2=NC(=CN(C)C)C(=O)O2)cc1 :: moderate
O=C(Nc1ccc(OC(F)(F)F)cc1)Nc1cc(C(F)(F)F)ccc1N1CCOCC1 :: low
CCCCC#Cc1ccc(C(=O)NNC(=O)Nc2ccccc2)o1 :: low
CNC(=O)Oc1ccc2c(c1)[C@]1(C)CCN(C)C1N2C (some centres undefined) :: high

Qu. Lab note: sort C[C@]12CC3CC(N)(C1)C[C@@](C)(C3)C2 into the matching log fold change Tl+ flux band.
Ans. moderate

Qu. # bin label for Cc1cc(Nc2ccc(F)cc2F)nc(SCc2c(Cl)cccc2Cl)n1
Ans. low

Qu. In plain terms, what class is O=c1cnn([C@@H]2O[C@H](CO)[C@@H](O)[C@H]2O)c(=O)[nH]1 ?
Ans. low

---

- tested_target: Protein kinase 7 (PK7), Plasmodium falciparum 3D7 (PF3D7_0213400) (UniProt Q7YTF7)
- protocol_details: inhibition of Plasmodium PK7 catalytic activity – biochemical, TCAMS antimalarial set, Kinase-Glo luminescence (AID 1159587)
- condition_label: recombinant PfPK7, Kinase-Glo ATP depletion luminescence
Active and inactive are the calls of the source. No rule for the calls is given here.
readout_name: outcome

Past entries and their recorded results:
COc1cc(CCNC(=O)Cc2ccc3ccccc3c2)ccc1OCc1ccccc1 :: inactive
O=C(NCCCN1CCCCC1)c1ccc(Nc2nccc(Nc3ccc(Oc4ccccc4)cc3)n2)cc1 :: inactive
Cc1nc(C)c(CC(=O)Nc2ccc(-c3cccc(-c4nc5c(C)cccc5[nH]4)c3)cc2)s1 :: inactive
COc1cccc(C2CCN(CCCCNC(=O)c3ccc(NC(=O)c4ccc(Cl)cc4)cc3)CC2)c1 :: inactive
CCn1c(-c2nonc2N)nc2c(-c3cc4ccccc4s3)ncc(C(=O)N3CCC(N)C3)c21 (stereo not given) :: inactive
Nc1ncc(-c2ccc(F)c(Cl)c2)c(N)n1 :: inactive
Nc1ncc(-c2cn[nH]c2)cc1-c1nc2ncc(Cl)cc2[nH]1 :: inactive
CCCN(CCC)S(=O)(=O)c1ccc(C(=O)Nc2nc3ccc(-c4cc(=O)[nH]c(Nc5ccccc5Cl)n4)cc3[nH]2)cc1 :: inactive

Lab note: each compound below needs its outcome filled in.
1. Oc1ccc(-c2ccccc2)cc1CNC1CCCCC1
2. CC(C)Cn1c(N)cc(=O)n(C)c1=O

Ans.
1. inactive
2. inactive

---

- protocol_details: inhibitors of Cryptococcus chitosan production, flow cytometry, Cibacron Brilliant Red staining (AID 1347148);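 note: compound exposure lasted three days at 37 degrees C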
- condition_label: Cryptococcus neoformans chitosan, stronger effect = lower value; at 10 µM unless noted
Calls of active or inactive are those of the source. The rule behind the calls is not given here.
What fold fluorescence was measured for each of the following?

Some solved entries appear below for comparison.
Cc1coc2c1C(=O)C(=O)c1c-2ccc2c1CCCC2(C)C :: 3.12 [at 169.9 µM] (inactive)
Cc1ccc(C(=O)Cn2c3c(sc2=N)CCCC3)cc1 :: 5.78 [at 174.6 µM] (inactive)
S=C(S)OC1CC2CC1C1CCCC21 (stereo not given) :: 5.66 [at 187.6 µM] (inactive)
COc1cccc(-c2cc(=O)c3ccccc3o2)c1N :: 6.5 [at 187.1 µM] (inactive)

Each of the following entries comes with a recorded value; kindly state fold fluorescence for each.
1. O=C1NC(=O)C(c2ccccc2[N+](=O)[O-])=C1Nc1ccc(O)c(Cl)c1
2. COC1CC2CCC(C)C(O)(O2)C(=O)C(=O)N2CCCCC2C(=O)OC(C(C)CC2CCC(O)C(OC)C2)CC(=O)C(C)/C=C(\C)C(O)C(OC)C(=O)C(C)CC(C)/C=C/C=C/C=C/1C (stereo not given)
3. Cn1cnc2c(NCc3ccccc3)nc(NCCO)nc21
4. Oc1ccc(-c2nc(-c3ccc(F)cc3)c(-c3ccncc3)[nH]2)cc1
5. O=S(=O)(NCCNC/C=C/c1ccc(Br)cc1)c1cccc2cnccc12
6. O=C1C(c2c(O)[nH]c3ccccc23)=Nc2ccccc21

Ans.
5.23 [at 139 µM] (inactive)
6.13 [at 54.7 µM] (inactive)
4.59 [at 167.6 µM] (inactive)
8.11 [at 150.9 µM] (inactive)
7.62 [at 112 µM] (inactive)
3.17 [at 190.6 µM] (inactive)

---

- Tested on: R275C/beta1
- protocol_details: modulators of BK channel variants, profiling panel, selectivity assay, cell-based, U2OS BacMam, thallium flux, beta subunits (AID 1259406);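 note: initial slope of Thallos dye fluorescence rise after thallium is added; log ratio against the mean of 0.3% DMSO vehicle wells on the same plate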
- condition_label: at 30 µM
Non-standard residues stand in square brackets, D forms with d. Residues, ends and D or L forms follow the SMILES beside them. pGlu = O=C1CC[C@@H](C(=O)O)N1; Thz = O=C(O)[C@@H]1CSCN1
readout_name: log fold change Tl+ flux
Numbers only.

Dear reader, for each entry below, please note its log fold change Tl+ flux.
1. Cc1cc(NC(=S)N2CCCCCC2)ccc1Br
2. Cc1cc(CNCC(O)C(F)(F)F)no1 (stereo not given)
3. CN(C)CCc1c[nH]c2ccc(Cn3cncn3)cc12

Ans.
-0.00715
-0.0759
-0.00809

// each compound listed below needs its log fold change Tl+ flux
1. O=C1CC[C@@H](C(=O)N2CSC[C@H]2C(=O)O)N1 ([pGlu]-[Thz]-OH)
2. CCOC(=O)CCSC1=NC(c2cccs2)C(C(=O)OCC)=C(C)N1 (stereo not given)

Ans.
1. -0.0174
2. -0.0288

---

- System: F380Y
- protocol_details: modulators of BK channel variants, profiling panel, selectivity assay, cell-based, U2OS BacMam, thallium flux, beta subunits (AID 1259406);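 note: initial slope of Thallos dye fluorescence rise after thallium is added; log ratio against the mean of 0.3% DMSO vehicle wells on the same plate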
- condition_label: at 30 µM
readout_name: log fold change Tl+ flux
Answers are plain numbers.

O=C1c2c(O)cc(O)cc2O[C@H](c2ccc(O)c(O)c2)[C@H]1O :: 0.0483
O=C(O)c1cccc(CSc2cccs2)c1 :: 0.0692
COc1ccc(C[C@H](C)NC[C@@H](O)c2ccc(O)c(NC=O)c2)cc1 :: -0.0497
CCOC(=O)c1sc(SC)nc1N :: -0.000489

For every item in the list below, what is its measured log fold change Tl+ flux?
1. CSc1nc2cc(Oc3cccc(Cl)c3Cl)c(Cl)cc2[nH]1
2. CCC[C@@H]1C[C@@H](C(=O)N[C@H]([C@@H](C)O)[C@H]2O[C@H](SC)[C@H](O)[C@@H](O)C2O)N(C)C1 (some centres not stated)
3. CN(C)[C@@H]1C(=O)C(C(=O)NCN2CCCC2)=C(O)[C@@]2(O)C(=O)C3=C(O)c4c(O)cccc4[C@@](C)(O)C3CC12 (some centres not stated)
4. CSc1nnc(SCC(=O)c2ccc3c(c2)OCCO3)s1
5. COc1ccnc(CS(=O)c2nc3cc(OC(F)F)ccc3[nH]2)c1OC (configuration not stated)
6. Cc1ccc(C(=O)c2c(-c3ccccc3)cc(-c3ccccc3)c3c2C(=O)CCC3)cc1
7. CCc1nc2ccccc2nc1N1CCN(S(=O)(=O)c2ccc(Cl)cc2)CC1

Ans.
1: -0.0619; 2: 0.0293; 3: -0.0801; 4: -0.00388; 5: -0.000729; 6: 0.0109; 7: -0.00553

---

- System: R275C/beta4
- protocol_details: modulators of BK channel variants, profiling panel, selectivity assay, cell-based, U2OS BacMam, thallium flux, beta subunits (AID 1259406);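 note: initial slope of Thallos dye fluorescence rise after thallium is added; log ratio against the mean of 0.3% DMSO vehicle wells on the same plate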
- condition_label: at 30 µM
readout_name: log fold change Tl+ flux
Numbers only.

O=[N+]([O-])c1cnc(Sc2nccc(-c3cccnc3)n2)s1 :: 0.0146
Cc1noc(C)c1C(=O)Sc1nccc(C(F)(F)F)n1 :: 0.0297
O=C1c2c(O)cc(O)cc2O[C@H](c2ccc(O)c(O)c2)[C@@H]1O :: -0.031
CC(=O)C1(O)CCC2C3CC(C)C4=CC(=O)C=CC4(C)C3(F)C(O)CC21C (stereo not given) :: 0.055

Qu. Indicate the recorded log fold change Tl+ flux value for this molecule: O=C(ON(C(=O)c1ccc(F)cc1)C1C2CC3CC(C2)CC1C3)c1ccc(F)cc1 (stereo not given)
Ans. 0.0539

---

- protocol_details: antimalarial activity against Dd2 strain (AID 2302);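 note: 0% = DMSO untreated growth and 100% = chloroquine plus artemisinin killed control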
- condition_label: P. falciparum Dd2 in RBCs, LDH growth readout, 72 h; at 2 µM; stronger effect = higher value
Would you mind labelling by growth inhibition? At or over 80% is true (1), under is false (0).

Solved cases (4 shown):
CC(C)Oc1ccc2ccccc2c1CNCCCCCCNCc1c(OC(C)C)ccc2ccccc12 :: true (1)
CN(C)CCCn1cncc1-c1ccc2ncnc(Nc3ccc4c(cnn4Cc4ccccc4)c3)c2c1 :: false (0)
COc1cccc(Cn2ccc3c4c(N)nc(N)nc4ccc32)c1 :: true (1)
COc1ccc(CNCC(C)(C)c2nc(-c3ccc(Cl)c(O)c3)c(-c3ccncc3)[nH]2)cc1 :: true (1)

Qu. Is growth inhibition for CC(C)(CNC(=O)C1CCN(Cc2ccoc2)CC1)c1nc(-c2ccc(Cl)c(O)c2)c(-c2ccncc2)[nH]1 at or above 80%?
Ans. false (0)

Qu. // inclusive: growth inhibition at least 80%? input: CCCCCCN1CCC(NCc2ccc(OCCN3CCCC3)cc2)CC1
Ans. true (1)

Qu. Hello, I need to know if CCOC(=O)c1ccc(NC(=O)N[C@@H](Cc2ccccc2)C(=O)NC2CCN(Cc3ccc(O)cc3)C2)cc1 (stereo partly drawn) has measured growth inhibition not below 80%. Thanks!
Ans. false (0)

Qu. Answer whether growth inhibition of CCn1c(-c2nonc2N)nc2c(-c3ccccc3)ncc(OCCCNCCCN3CCOCC3)c21 is greater than or equal to 80%.
Ans. true (1)

Qu. # bool: growth inhibition of Cc1cc(NN=Cc2ccccc2[N+](=O)[O-])c2cccc(C)c2n1 >= 80%
Ans. true (1)
